Every entry's value here was drawn from paper PMC5454942.

# System: B16 melanoma cells
# protocol: Anti-melanogenesis assay (melanin content)
# Assay type: cell-based, mouse
# test-context: Mus musculus; 1 μg/ml, B16 cells; read-out: Inhibition rate (100% − melanin synthesis)
# Method: This assay was performed as described by Arung et al.. The mouse melanoma cell line B16 was obtained from the Riken Bioresource Center Cell Bank (Tsukuba, Japan). […] After 24 h, the melanin content and the cell viability were measured using a microplate reader (BioTek-ELX800, BioTek Instruments, Winooski, VT, USA) at 405 nm and 570 nm, respectively. Cell viability was measured using the MTT (3-(4,5-dimethylthiazol-2-yl)-2,5-diphenyltetrazolium bromide) method.
observation-type: inhibition at 1 µg/mL

inhibition at 1 µg/mL for B16 melanoma cells with input CC1(C)CC[C@]2(C(=O)O)CC[C@]3(C)C(=CC[C@@H]4[C@@]5(C)C[C@@H](O)[C@H](O)C(C)(C)[C@@H]5CC[C@]43C)[C@@H]2C1 [Compound 7, Maslinic acid] equals 2.8%

inhibition at 1 µg/mL for B16 melanoma cells with input CC1(C)CC[C@]2(C(=O)O)CC[C@]3(C)C(=CC[C@@H]4[C@@]5(C)CC[C@H](O)C(C)(C)[C@@H]5CC[C@]43C)[C@@H]2C1 [Compound 2, Oleanolic acid] equals 9.5%

inhibition at 1 µg/mL for B16 melanoma cells with input C[C@@H]1CC[C@]2(C(=O)O)CC[C@]3(C)C(=CC[C@@H]4[C@@]5(C)CC[C@H](O)C(C)(C)[C@@H]5CC[C@]43C)[C@@H]2[C@]1(C)O [Compound 10, Pomolic acid] equals 3.2%

inhibition at 1 µg/mL for B16 melanoma cells with input C=C(C)[C@@H]1CC[C@]2(C(=O)O)CC[C@]3(C)[C@H](CC[C@@H]4[C@@]5(C)CC[C@H](O)C(C)(C)[C@@H]5CC[C@]43C)[C@@H]12 [Compound 4, Betulinic acid] equals 35.4%

inhibition at 1 µg/mL for B16 melanoma cells with input C[C@H]1[C@H](C)CC[C@]2(C(=O)O)CC[C@]3(C)C(=CC[C@@H]4[C@@]5(C)CC[C@H](O)C(C)(C)[C@@H]5CC[C@]43C)[C@H]12 [Compound 1, Ursolic acid] equals 24%

inhibition at 1 µg/mL for B16 melanoma cells with input C[C@H]1[C@H](C)CC[C@]2(C(=O)O)CC[C@]3(C)C(=CC[C@@H]4[C@@]5(C)C[C@@H](O)[C@H](O)C(C)(C)[C@@H]5CC[C@]43C)[C@H]12 [Compound 8, Corosolic acid] equals 3.4%

---

# Tested on: B16 melanoma cells
# protocol: Cell viability of B16 melanoma cells (MTT)
# test-context: read-out: CC50 (cell viability); B16 melanoma cells, MTT
observation-type: CC50 (µM)
Numeric answer only, unit µM assumed.

For COC(=O)[C@]12CC[C@@H](C)[C@H](C)[C@H]1C1=CC[C@@H]3[C@@]4(C)C[C@@H](O)[C@H](O)C(C)(C)[C@@H]4CC[C@@]3(C)[C@]1(C)CC2 [Compound 6, methyl corosolate] the compound record lists CC50 as 18.7

For C[C@@H]1CC[C@]2(C(=O)O)CC[C@]3(C)C(=CC[C@@H]4[C@@]5(C)CCC(=O)C(C)(C)[C@@H]5[C@H](O)C[C@]43C)[C@@H]2[C@]1(C)O the compound record lists CC50 as 10.9

For COC(=O)[C@]12CCC(C)(C)C[C@@H]1C1=CC[C@@H]3[C@@]4(C)C[C@@H](O)[C@H](O)C(C)(C)C4CC[C@@]3(C)[C@]1(C)CC2 (stereo partly drawn) [Compound 5, Methyl maslinate] the compound record lists CC50 as 17.5

---

# System: RBL-2H3 cells
# protocol: β-hexosaminidase release from IgE-stimulated RBL-2H3 mast cells
# Format: cell-based, rat
# test-context: 25 μg/mL
observation-type: Inhibition Rate (β-hexosaminidase release) (%)
Numeric answer only, unit % assumed.

For C[C@H]1[C@H](C)CC[C@]2(C(=O)O)CC[C@]3(C)C(=CC[C@@H]4[C@@]5(C)C[C@@H](O)[C@@H](O)C(C)(C)[C@@H]5CC[C@]43C)[C@H]12 [Compound 9, 3-epicorosolic acid] the compound record lists Inhibition Rate (β-hexosaminidase release) as 54.4

For COC(=O)[C@]12CCC(C)(C)C[C@@H]1C1=CC[C@@H]3[C@@]4(C)C[C@@H](O)[C@H](O)C(C)(C)C4CC[C@@]3(C)[C@]1(C)CC2 (stereo partly shown) [Compound 5, Methyl maslinate] the compound record lists Inhibition Rate (β-hexosaminidase release) as 8.5

For COC(=O)[C@]12CC[C@@H](C)[C@H](C)[C@H]1C1=CC[C@@H]3[C@@]4(C)C[C@@H](O)[C@H](O)C(C)(C)[C@@H]4CC[C@@]3(C)[C@]1(C)CC2 [Compound 6, methyl corosolate] the compound record lists Inhibition Rate (β-hexosaminidase release) as 2.4

For C[C@@H]1CC[C@]2(C(=O)O)CC[C@]3(C)C(=CC[C@@H]4[C@@]5(C)C[C@@H](O)C(=O)C(C)(C)[C@@H]5CC[C@]43C)[C@@H]2[C@]1(C)O the compound record lists Inhibition Rate (β-hexosaminidase release) as 0.9

---

# protocol: Cell viability of RBL-2H3 cells (parallel MTT)
# Format: cell-based, rat
# test-context: rat
observation-type: viability at 25 μg/ml (%)
Numeric answer only, unit % assumed.

For CC1CCC2(C(=O)O)CCC3(C)C(=CCC4C5(C)C(CO)=CC(C)(C)C5CCC43C)C2C1(C)O (centres unmarked) [Compound 16, hyptadienic acid] the compound record lists viability at 25 μg/ml as 99.9

For C[C@@H]1CC[C@]2(C(=O)O)CC[C@]3(C)C(=CC[C@@H]4[C@@]5(C)C[C@@H](O)[C@@H](O)C(C)(C)[C@@H]5CC[C@]43C)[C@@H]2[C@]1(C)O [Compound 12, euscaphic acid] the compound record lists viability at 25 μg/ml as 93.9

---

# Test system: B16 melanoma cells
# protocol: Cell viability of B16 melanoma cells (MTT)
# test-context: read-out: CC50 (cell viability); B16 melanoma cells, MTT
observation-type: CC50 (µM)
Numeric answer only, unit µM assumed.

CC50 for B16 melanoma cells with input C[C@@H]1CC[C@]2(C(=O)O)CC[C@]3(C)C(=CC[C@@H]4[C@@]5(C)C[C@@H](O)[C@H](OC(=O)/C=C\c6ccc(O)cc6)C(C)(C)[C@@H]5CC[C@]43C)[C@@H]2[C@]1(C)O (relative stereo) [Compound 18, 3-O-cis-p-coumaroyl tormentic acid] equals 19.5

---

# System: B16 melanoma cells
# protocol: Anti-melanogenesis assay (melanin content)
# Assay type: cell-based, mouse
# test-context: B16 melanoma cells; read-out: IC50 (melanin synthesis)
What IC50 was measured for each of the following?
Numeric answer only, unit µM assumed.

For C[C@@H]1CC[C@]2(C(=O)O)CC[C@]3(C)C(=CC[C@@H]4[C@@]5(C)CCC(=O)C(C)(C)[C@@H]5[C@H](O)C[C@]43C)[C@@H]2[C@]1(C)O [Compound 14] the molecule record lists IC50 as 14.8

For COC(=O)[C@]12CC[C@@H](C)[C@H](C)[C@H]1C1=CC[C@@H]3[C@@]4(C)C[C@@H](O)[C@H](O)C(C)(C)[C@@H]4CC[C@@]3(C)[C@]1(C)CC2 [Compound 6, methyl corosolate] the molecule record lists IC50 as 16.1

---

# protocol: Cell viability of B16 melanoma cells (MTT)
# test-context: mouse, B16 melanoma cells
observation-type: CC50 at 72 h

For C[C@H]1[C@H](C)CC[C@]2(CO)CC[C@]3(C)C(=CC[C@@H]4[C@@]5(C)CC[C@H](O)C(C)(C)[C@@H]5CC[C@]43C)[C@H]12 the molecule record lists CC50 at 72 h as > 45.2 µM

---

# Test system: NHDF cells
# protocol: Skin type I collagen synthesis promoting assay (ELISA, with MTT)
# Assay type: cell-based, human
# test-context: 5 μg/mL, fold of control
# Procedure: The assay for measuring the promotion of skin collagen synthesis was described by Kishikawa et al.. […] After 72 h of cultivation, the amount of collagen in the medium was measured using a human type I collagen enzyme-linked immunosorbent assay (ELISA) kit (ACEL, Kanagawa, Japan). The amount of collagen production was calculated using a standard curve prepared by measurement by the same ELISA. […]
observation-type: CP/CV value (collagen production %/cell viability %)
// no unit, no text: just the number

For C[C@@H]1CC[C@]2(C(=O)O)CC[C@]3(C)C(=CC[C@@H]4[C@@]5(C)C[C@@H](O)[C@H](O)C(C)(C)[C@@H]5CC[C@]43C)[C@@H]2[C@]1(C)O [Compound 11, tormentic acid] the molecule record lists CP/CV value (collagen production %/cell viability %) as 1.3

For C[C@@H]1CC[C@]2(C(=O)O)CC[C@]3(C)C(=CC[C@@H]4[C@@]5(C)CCC(=O)C(C)(C)[C@@H]5[C@H](O)C[C@]43C)[C@@H]2[C@]1(C)O [Compound 14] the molecule record lists CP/CV value (collagen production %/cell viability %) as 1.4

For C[C@@H]1CC[C@]2(C(=O)O)CC[C@]3(C)C(=CC[C@@H]4[C@@]5(C)C[C@@H](O)[C@H](OC(=O)/C=C\c6ccc(O)cc6)C(C)(C)[C@@H]5CC[C@]43C)[C@@H]2[C@]1(C)O (relative stereo) [Compound 18, 3-O-cis-p-coumaroyl tormentic acid] the molecule record lists CP/CV value (collagen production %/cell viability %) as 1.1

For COC(=O)[C@]12CC[C@@H](C)[C@H](C)[C@H]1C1=CC[C@@H]3[C@@]4(C)C[C@@H](O)[C@H](O)C(C)(C)[C@@H]4CC[C@@]3(C)[C@]1(C)CC2 [Compound 6, methyl corosolate] the molecule record lists CP/CV value (collagen production %/cell viability %) as 2.4

For C[C@H]1[C@H](C)CC[C@]2(C(=O)O)CC[C@]3(C)C(=CC[C@@H]4[C@@]5(C)C[C@@H](O)[C@@H](O)C(C)(C)[C@@H]5CC[C@]43C)[C@H]12 [Compound 9, 3-epicorosolic acid] the molecule record lists CP/CV value (collagen production %/cell viability %) as 1.3

For C[C@@H]1CC[C@]2(C(=O)O)CC[C@]3(C)C(=CC[C@@H]4[C@@]5(C)C[C@@H](O)C(=O)C(C)(C)[C@@H]5CC[C@]43C)[C@@H]2[C@]1(C)O [Compound 15] the molecule record lists CP/CV value (collagen production %/cell viability %) as 1.1
